# MEASURED_ON: Estrogen receptor (Homo sapiens) (UniProt P03372)
# Sequence (whole entry): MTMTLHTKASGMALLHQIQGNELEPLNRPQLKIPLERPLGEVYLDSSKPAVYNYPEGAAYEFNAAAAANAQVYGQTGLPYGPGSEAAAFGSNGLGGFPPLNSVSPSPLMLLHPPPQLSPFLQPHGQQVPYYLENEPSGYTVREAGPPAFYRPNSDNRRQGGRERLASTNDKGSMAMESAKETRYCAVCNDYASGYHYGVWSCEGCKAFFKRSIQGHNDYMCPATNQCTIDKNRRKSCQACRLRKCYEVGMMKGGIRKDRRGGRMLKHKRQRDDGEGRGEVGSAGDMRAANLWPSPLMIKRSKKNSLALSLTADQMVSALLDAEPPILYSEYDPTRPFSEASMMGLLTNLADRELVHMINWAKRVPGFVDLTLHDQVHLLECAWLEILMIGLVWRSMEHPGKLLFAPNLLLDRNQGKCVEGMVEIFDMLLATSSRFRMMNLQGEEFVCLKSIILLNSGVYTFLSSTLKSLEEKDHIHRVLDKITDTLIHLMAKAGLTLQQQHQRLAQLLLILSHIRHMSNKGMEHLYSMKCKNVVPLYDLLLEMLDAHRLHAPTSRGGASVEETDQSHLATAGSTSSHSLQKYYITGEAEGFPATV
# EXPERIMENT_DESCRIPTION: Displacement of [6,7-3H]17beta-estradiol from recombinant human ERalpha ligand binding domain at 0.4 to 4 uM incubated for 16 hrs by scintillation counting analysis
The source made the active and inactive calls. No cut-off for these calls is given here.
Classes to choose from: active, inactive

Prompt line: Which outcome did this test record for the molecule CC(=O)N1CCC(=C(c2ccc(O)cc2)c2ccc(O)cc2)CC1 ?
Response line: inactive

Prompt line: Which outcome did this test record for the molecule CC1(C)CC(=C(c2ccc(O)cc2)c2ccc(O)cc2)CC(C)(C)N1 ?
Response line: active

Prompt line: Which outcome did this test record for the molecule CC(=O)N1C(C)(C)CC(=C(c2ccc(O)cc2)c2ccc(O)cc2)CC1(C)C ?
Response line: active

Prompt line: Which outcome did this test record for the molecule CN1CCC(=C(c2ccc(O)cc2)c2ccc(O)cc2)CC1 ?
Response line: inactive

Prompt line: Which outcome did this test record for the molecule Oc1ccc(C(=C2CCNCC2)c2ccc(O)cc2)cc1 ?
Response line: inactive
